Tested on: Mus musculus
Experiment: Toxicity in NMRI mouse infected with Trypanosoma brucei rhodesiense STIB900 assessed as survival at 5 mg/kg, ip after administered for 4 consecutive days from day 3 postinfection measured after 7 to 30 days
Type: organism-based
Parameters: dose 5 mg/kg, route intraperitoneal
Details: in vivo
outcome_measure: Activity

{"columns": ["chemical_string", "Activity"],
 "data": [
  ["Cl.Cl.N=C(N)c1ccc(-c2cn(-c3ccc(C(=N)N)cc3)nn2)cc1", "Non-toxic"],
  ["CC(C)NC(=N)c1ccc(-n2cc(-c3ccc(C(=N)NC(C)C)cc3O)nn2)cc1.Cl.Cl", "Non-toxic"],
  ["COc1cc(C(=N)N)ccc1-n1cc(-c2ccc(C(=N)N)cc2)nn1.Cl.Cl", "Toxic"],
  ["Cl.Cl.N=C(N)c1cccc(-n2cc(-c3cc(C(=N)N)ccc3O)nn2)c1", "Toxic"]
]}

Now for the compound whose Activity we want.
So what's the measured Activity for this one? `Cl.Cl.N=C(N)c1ccc(-n2cc(-c3cc(C(=N)N)ccc3O)nn2)cc1`
Non-toxic

* * *

Measured selectivity ratio of individual entries
Test: Selectivity index, ratio of IC50 for rat L6 cells to IC50 for Trypanosoma brucei rhodesiense STIB900
Assay type: toxicity, cell-based
Conditions: read-out: Ratio IC50

Take a look at these entries with their results.
{"columns": ["chemical_string", "selectivity ratio"],
 "data": [
  ["COc1ccc(C(=N)N)cc1-n1cc(-c2ccc(C(=N)N)cc2)nn1.Cl.Cl", "> 12600"],
  ["CC(C)NC(=N)c1ccc(-c2cn(-c3ccc(C(=N)NC(C)C)cc3)nn2)cc1.Cl.Cl", "> 910"],
  ["COc1cc(C(=N)NC(C)C)ccc1-n1cc(-c2cccc(C(=N)NC(C)C)c2)nn1", "> 81"]
]}

Please find the next compound below.
Sample `COc1cc(C2=NCCN2)ccc1-c1cn(-c2cccc(C3=NCCN3)c2)nn1` — what was its selectivity ratio?
> 43

* * *

As shown below, each of these molecules has a reported IC50 value.
Test system: Leishmania donovani
Experiment: Antileishmanial activity against Leishmania donovani MHOM/SD/62/1S-CL2D
Type: functional, organism-based

What is its IC50 for Leishmania donovani? Entry: `COc1cc(C(=N)NC(C)C)ccc1-n1cc(-c2cccc(C(=N)NC(C)C)c2)nn1`
> 100 µM

Then `Oc1cc(C2=NCCN2)ccc1-n1cc(-c2cccc(C3=NCCN3)c2)nn1` ?
> 100 µM

Record: `COc1ccc(C2=NCCN2)cc1-c1cn(-c2ccc(C3=NCCN3)cc2)nn1.Cl.Cl`
> 100 µM

Field entry: `COc1ccc(C(=N)NC(C)C)cc1-n1cc(-c2ccc(C(=N)NC(C)C)cc2)nn1`
> 100 µM

Cool, now `Cl.Cl.N=C(N)c1cccc(-c2cn(-c3cccc(C(=N)N)c3)nn2)c1`
48 µM

Then `CC(C)NC(=N)c1ccc(-n2cc(-c3cc(C(=N)NC(C)C)ccc3O)nn2)cc1.Cl` ?
> 100 µM

Request: `Oc1ccc(C2=NCCN2)cc1-n1cc(-c2cccc(C3=NCCN3)c2)nn1`
> 100 µM

// query: `COc1ccc(C(=N)N)cc1-n1cc(-c2ccc(C(=N)N)cc2)nn1.Cl.Cl`
31 µM

Let us now turn to `c1cc(C2=NCCN2)cc(-c2cn(-c3cccc(C4=NCCN4)c3)nn2)c1`
> 100 µM

Also, `N=C(N)c1ccc(-c2cn(-c3cc(C(=N)N)ccc3O)nn2)cc1` please.
> 100 µM
